Would you kindly list CC50 for each of these compounds?
test system: SK-BR-3; test: SRB colorimetric cell growth inhibition assay, SK-BR-3; type: cell-based; conditions: Homo sapiens, SK-BR-3, SK-BR-3; cell killing (cytotoxic effect); read-out: LC50 SK-BR-3
Numeric only. Scale: µM

Qu. Any idea what its CC50 is? The compound is COc1cc(-c2c3c4cc(OC)c(OC(=O)[C@@H]5CCCN5)cc4oc(=O)c3n3ccc4cc(OC(=O)[C@@H]5CCCN5)c(OC)cc4c23)ccc1OC(=O)[C@@H]1CCCN1
Ans. 1.44

Qu. Can you share its CC50? I mean this compound: CC[C@H](C)[C@H](NC(=O)OC(C)(C)C)C(=O)Oc1ccc(-c2c3c4cc(OC)c(OC(=O)[C@@H](NC(=O)OC(C)(C)C)[C@@H](C)CC)cc4oc(=O)c3n3ccc4cc(OC(=O)[C@@H](NC(=O)OC(C)(C)C)[C@@H](C)CC)c(OC)cc4c23)cc1OC
Ans. 8.78

Qu. Quick check: CC50 of COc1cc(-c2c3c4cc(OC)c(OC(=O)CCCCCN)cc4oc(=O)c3n3ccc4cc(OC(=O)CCCCCN)c(OC)cc4c23)ccc1OC(=O)CCCCCN ?
Ans. 10.5

Qu. CC50 for COc1cc(-c2c3n(c4c(=O)oc5cc(OC(=O)[C@H](C)NC(=O)[C@H](C)NC(=O)OC(C)(C)C)c(OC)cc5c24)CCc2cc(OC(=O)[C@H](C)NC(=O)[C@H](C)NC(=O)OC(C)(C)C)c(OC)cc2-3)ccc1OC(=O)[C@H](C)NC(=O)[C@H](C)NC(=O)OC(C)(C)C ?
Ans. 5.98
